- Tested on: MDA-MB-435
- Procedure Details: NCI tumour cell line growth inhibition, 48 h
The entries below are paired with their reported TGI.
Entry rule: numbers only, all in µM.

molecule=C=CC(=O)N1CC2(CCN(c3nc(OC4CCN(CCCOC)CC4)nc4c(OCC(F)(F)F)c(-c5c(C)ccc6[nH]ncc56)c(C5CC5)cc34)CC2)C1 metric=TGI number=4
molecule=COc1ccc2c(c1)CC1=C(O2)c2ccc(OC)cc2OC1 metric=TGI number=47.5
molecule="CC1(CNCc2ccccc2)CC(CCc2ccccc2)N(C(=O)c2ccc([N+](=O)[O-])cc2)C1Cc1ccc(O)cc1 (stereo unspecified)" metric=TGI number=28.2
molecule="COc1ccc2c(c1)CN1C(=N2)CSC1c1ccccc1Cl (stereo unspecified)" metric=TGI number=39.9

Item: N#Cc1cc2c(cc1Cl)Sc1nccn1S2(=O)=O | TGI: 17.5
